test system: MS2 coat protein; assay: apparent KD of MS2 coat protein, switch ON state; designed switch direction (-1 OFF switch, 1 ON switch): 1; higher = weaker reporter binding; conditions: FMN input: 0 or 200 uM; Eterna round: R93 (includes R88 designs)
Measured Property: apparent KD of MS2 coat protein (nM)

[[record]]
monomer_sequence = "AAAAAACAUGAGGAUCACCCAUGUGAGAACAUGGGAGGAUAUACGAAGACGAAAGUCGAAGUAGAAGGCCUAAAAG [Garnet 79]"
measured_property = "apparent KD of MS2 coat protein"
unit_spec = "nM"
measurement = 994

[[record]]
monomer_sequence = "AACAAUCUAUCUGAGGAUAUCAUGUCAAAGACAUGAGGAUCACCCAUGUGCAGGAAAACUGCUCAUGAGAAGGCAGAUAGAUUGA [SS2: 1110]"
measured_property = "apparent KD of MS2 coat protein"
unit_spec = "nM"
measurement = 464

[[record]]
monomer_sequence = "AGAAAUAAAGGAGAGGAUAUCCAAAAGAAAACAUGAGGAUCACCCAUGUAAAAGAAAAUAAAAUGGGAGAAGGCUUCAAAUAAGA [Starry modified V4]"
measured_property = "apparent KD of MS2 coat protein"
unit_spec = "nM"
measurement = 52.3

[[record]]
monomer_sequence = "AAAAAACAUGAGGAUCACCCAUGUCGAAAGACGUGAGGAUAUGUACAGACUUCGGUCUGUACAGAAGGCACGAAAA [SS1 - 1038]"
measured_property = "apparent KD of MS2 coat protein"
unit_spec = "nM"
measurement = 18.5

[[record]]
monomer_sequence = "CGCGAACAUGAGGAUCACCCAUGUAAAUCGCAUGUAGGAUAUGGGAUACACAUUAAGAUCCCAGAAGGGCGGAAAA [Leeroner]"
measured_property = "apparent KD of MS2 coat protein"
unit_spec = "nM"
measurement = 23.8

[[record]]
monomer_sequence = "GGAGCCGGUACUGAGGAUAUUCAUAUUAAAACAUGAGGAUCACCCAUGUAGGCCAGAAAGCCUUGGGAGAAGGCAGAUCGGCUCG [Bienuslete]"
measured_property = "apparent KD of MS2 coat protein"
unit_spec = "nM"
measurement = 17.8

[[record]]
monomer_sequence = "GACUGACAUGAGGAUCACCCAUGUAUUCGAGCAUGAGGAUAUAUGACACGUCAUCGACGGAUAGAAGGCAUGGAUG [JR_SS001_Sub1211]"
measured_property = "apparent KD of MS2 coat protein"
unit_spec = "nM"
measurement = 232

[[record]]
monomer_sequence = "AAAAGGGCGACACAGGAUAUGUUGACCCUAACAUGAGGAUCACCCAUGUGCAUUUAGGGUCGUGCGCAGAAGGGUGCAGCUCGGA [Enatin]"
measured_property = "apparent KD of MS2 coat protein"
unit_spec = "nM"
measurement = 21.1

[[record]]
monomer_sequence = "GACAAACAUGAGGAUCACCCAUGUAGACAUAUGGGAGGAUAUACACAGACGAAAGUCAAAGUAGAAGGCCUACAAG [77%, Mat - Mod of Eli - With 4 more C's]"
measured_property = "apparent KD of MS2 coat protein"
unit_spec = "nM"
measurement = 29.3

[[record]]
monomer_sequence = "CAUCACGCGCCUAAGGAUAUGUCUCACAAGACAUGAGGAUCACCCAUGUAGACUAAAUAAACGAUGCAGAAGGUGGAGCGCAUGC [Usrexe]"
measured_property = "apparent KD of MS2 coat protein"
unit_spec = "nM"
measurement = 76.4

[[record]]
monomer_sequence = "AGAAAACAUGAGGAUCACCCAUGUUAGUGUCAUUAAGGAUAUAGGCUUAAGAAUCUGAGACUAGAAGGUGGUGCGC [Orbeus]"
measured_property = "apparent KD of MS2 coat protein"
unit_spec = "nM"
measurement = 21.9

[[record]]
monomer_sequence = "AGGAAACAUGAGGAUCACCCAUGUAAAAAUAUGGGAGGAUAUACGAAGAAAAAAAAAAAAGUAGAAGGCCUAAAAG [Garnet 11]"
measured_property = "apparent KD of MS2 coat protein"
unit_spec = "nM"
measurement = 90.7

[[record]]
monomer_sequence = "GACAAACAUGAGGAUCACCCAUGUAGACAUAUGGGAGGAUAUACACAGACGAAAGUCACAGUAGAAGGCCUACAAG [77%, Mat - Mod of Eli - With 5 more C's]"
measured_property = "apparent KD of MS2 coat protein"
unit_spec = "nM"
measurement = 26.9

[[record]]
monomer_sequence = "AAACCACAUGAGGAUCACCCAUGUGAAAAAAAUACAGGAUAUGGAAACACGAAAGUGAAACCAGAAGGGUGAAAAA [77%, Mat - Mod of Eli, 28]"
measured_property = "apparent KD of MS2 coat protein"
unit_spec = "nM"
measurement = 13.4

[[record]]
monomer_sequence = "AAAAGACAUGAGGAUCACCCAUGUAAAGACGUAGGAGGAUAUGUCGUGAAAAAAGACUUGGCAGAAGGCCUGUGUC [SS1 - 40]"
measured_property = "apparent KD of MS2 coat protein"
unit_spec = "nM"
measurement = 21.4


---

system: MS2 coat protein; experiment: apparent KD of MS2 coat protein, switch OFF state (with FMN for OFF switches, without FMN for ON switches); designed switch direction (-1 OFF switch, 1 ON switch): -1; higher = weaker reporter binding; settings: FMN input: 0 or 200 uM; Eterna round: R93 (includes R88 designs)
Measured Property: apparent KD of MS2 coat protein (nM)

[[record]]
monomer_sequence = "AAAAAACAUGAGGAUCACCCAUGUGAGGAUAUGAACGAAAAUAAAUAAAAAUAAAAGUUCAGAAGGUACGAAAA [66%, Wbt, 3]"
measurement = 30.7

[[record]]
monomer_sequence = "CAAAGGUGAGGAUAUACAUAACUAUGACGAAAGUCAUAAACACAUGAGGAUCACCCAUGUAGAAGGCACCACAA [e2]"
measurement = 29.9

[[record]]
monomer_sequence = "AAAAAACAUGAGGAUCACCCAUGUGAGGAUAUGCAAAACCCAUAUAAAAAGGGAAAAAGCAGAAGGCACAAAAA [Starry Exclusion 1.3 (wbt round 1 mod)]"
measurement = 55.8

[[record]]
monomer_sequence = "AAAGGACGAGGAUAUACAUGAGGAUCACCCAUGUAAAAAACAUAAUAAAAGAAUAUAUGUAGAAGGCGUCCAAA [Ruby 59]"
measurement = 17.8

[[record]]
monomer_sequence = "AAGAAAGCAGGAUAUACAUGAGGAUCACCCAUGUAAAAGAAAGAAAGGGAAAAGAAAAGUAGAAGGGCUAAGAA [Usermaatre-setepenre Pami]"
measurement = 26.1

[[record]]
monomer_sequence = "AAGAAGUCAGGAUAUGCGAAUCGAUAAGAACGUCAAAGAAAGCAGAAGGGACAUGAGGAUCACCCAUGUAAAGA [Opal 39]"
measurement = 27.6

[[record]]
monomer_sequence = "AAGAGUAGAGGAUAUACGGGAAAAGAGUCGAAAGACUCAAAACAUGAGGAUCACCCAUGUAGAAGGCUACUCAA [Hyphema Seclusion Mod 62% 6]"
measurement = 102

[[record]]
monomer_sequence = "AAAGGAUCAGGAUAUGCGUGGAAAAAGUGUAUUCAAAAAAAACAUGAGGAUCACCCAUGUAGAAGGGAUCCAAA [Normal (20/19)]"
measurement = 546

[[record]]
monomer_sequence = "AAGAGUACAGGAUAUACAUGAAAAGAGUCGAAAGACUCAAAACAUGAGGAUCACCCAUGUAGAAGGGUACUCAA [Hyphema Seclusion Mod 62% 2]"
measurement = 98.9


---

system: MS2 coat protein; experiment: apparent KD of MS2 coat protein; designed switch direction (-1 OFF switch, 1 ON switch): -1; higher = weaker reporter binding; conditions: input ligand: none
Decide by apparent KD of MS2 coat protein: equal to or exceeding 0.05 µM means met, less means not met.

[[record]]
monomer_sequence = "GAUCACUGAGGAUAUACACAGAUACAAAGUAUCUGACGGUGACAUGAGGAUCACCCAUGUAGAAGGCAGAGGUC [Omei Ex2 B2] (Eterna round: R97, puzzle: Exclusion 2)"
experimental_target = "MS2 coat protein"
group_label = "met"

[[record]]
monomer_sequence = "GCCCAGAGAGGAUAUACAUGAGGAUCACCCAUGUAGAGCUUGUCUGCAGUGAAAGGAUGUAGAAGGCUCGGGCA [Racearza] (Eterna round: R97, puzzle: Exclusion 3)"
experimental_target = "MS2 coat protein"
group_label = "not met"

[[record]]
monomer_sequence = "AAGCUGUCAGGAUAUCGUUAAUUUAGUUGUUUGUAUUAGUUCGAGAAGGGACAUGAGGAUCACCCAUGUAUGAA [Ex4 #41] (Eterna round: R97, puzzle: Exclusion 4)"
experimental_target = "MS2 coat protein"
group_label = "not met"

[[record]]
monomer_sequence = "UCGCUCCGUGUAGGAUAUCGCCGUUCUAUUCGGCGAGAAGGACAUGAGGAUCACCCAUGUAUGUUAUUAUCACGUGUGGCGCGC [Design 55] (Eterna round: R96, puzzle: Exclusion NG 1)"
experimental_target = "MS2 coat protein"
group_label = "not met"

[[record]]
monomer_sequence = "CAUGAUUGGCGAGGAUAUUGUUCUACAUGGCGACGAGAAGGCGCCUGUCACAUGAGGAUCACCCAUGUGAGUCUGGUGAAUGAG [Ex NG1 #84] (Eterna round: R96, puzzle: Exclusion NG 1)"
experimental_target = "MS2 coat protein"
group_label = "not met"

[[record]]
monomer_sequence = "AUAUUUAGCUUUUUGUGAAACAUGAGGAUCACCCAUGUCCUCAUAACUGGACAUUUAAGUCUAGAAGCUCGUCUUAU [Last end dangle 3] (Eterna round: R97, puzzle: Sensor, turn-off variant 1)"
experimental_target = "MS2 coat protein"
group_label = "met"

[[record]]
monomer_sequence = "CAGUACUGAGGAUAUACAUGAGGAUCACCCAUGUGAUCUAGUGCACGCGUACGUGUACGUAGAAGGCAGUACUG [JL 3.27 m3] (Eterna round: R97, puzzle: Exclusion 3)"
experimental_target = "MS2 coat protein"
group_label = "not met"

[[record]]
monomer_sequence = "GAAAUCGAAGGAUAUCCGGGUGUCCACAUGAGGAUCACCCAUGUACUGGCCAAUAGCCAGGGAGAAGGUCGCCCAA [EX5 A.3] (Eterna round: R97, puzzle: Exclusion 5)"
experimental_target = "MS2 coat protein"
group_label = "met"

